Hello, the source for this data is paper PMC8829872, in case you need it.

# Assay text: in vivo
# Condition context: Balb/c, mouse, po, 2 mg/kg
Readout: AUC(0-inf) (µg·h/mL)
Give the quantity in µg·h/mL, number only.

Requested read-out: AUC(0-inf). Entry: C[C@@H]1COCCN1c1cc(C2([S@](C)(=N)=O)CC2)nc(-c2cc[nH]c3nccc2-3)n1 0.423

----------
# Assay text: Unified compartmental PK model (ADAPT5)
# Design: species or system mice
# Condition context: Balb/c, mouse, plasma; 7.5 mg/kg PO; read-out: Model F (compartmental bioavailability)
Readout: bioavailability (%)
Numeric answer only, unit % assumed.

# lookup: bioavailability of C[C@@H]1COCCN1c1cc(C2([S@](C)(=N)=O)CC2)nc(-c2cc[nH]c3nccc2-3)n1 [AZD6738] 61.5

----------
# Assay text: Extensive tissue distribution study in CT26 tumor-bearing mice
# Type: in vivo, Balb/c mice
# Condition context: Balb/c, mouse; 75 mg/kg PO; Liver; 0-1440 min; read-out: AUC0-t (converted)
Readout: AUC(0-t) (µg·h/mL)
State the answer as a number, implicitly in µg·h/mL.

Using the record for C[C@@H]1COCCN1c1cc(C2([S@](C)(=N)=O)CC2)nc(-c2cc[nH]c3nccc2-3)n1 [AZD6738] , report its AUC(0-t). 293

----------
# Assay text: Extensive tissue distribution study in CT26 tumor-bearing mice
# Assay type: in vivo, Balb/c mice
# Condition context: Balb/c, mouse, kidney; 75 mg/kg PO; Kidneys; read-out: Cmax
Readout: Cmax (ng/mL)
Use ng/mL as the unit, but write only the number.

// returns reported Cmax for input C[C@@H]1COCCN1c1cc(C2([S@](C)(=N)=O)CC2)nc(-c2cc[nH]c3nccc2-3)n1 [AZD6738] 39200

----------
# Assay text: Extensive tissue distribution study in CT26 tumor-bearing mice
# Type: in vivo, Balb/c mice
# Condition context: Balb/c, mouse, draining lymph node / plasma, oral, 75 mg/kg, 75 mg/kg PO; Draining Lymph Node to plasma AUC; read-out: Partition Coefficient
Readout: Kp

Fill blank: measured Kp of the molecule C[C@@H]1COCCN1c1cc(C2([S@](C)(=N)=O)CC2)nc(-c2cc[nH]c3nccc2-3)n1 is ____. 0.792

----------
# Assay text: Extensive tissue distribution study in CT26 tumor-bearing mice
# Type: in vivo, Balb/c mice
# Condition context: Balb/c, mouse, tumor / plasma, oral, 75 mg/kg, 75 mg/kg PO; Tumor to plasma AUC; read-out: Partition Coefficient
Readout: Kp
Reply with the value as a number alone.

Record request: Kp value, item C[C@@H]1COCCN1c1cc(C2([S@](C)(=N)=O)CC2)nc(-c2cc[nH]c3nccc2-3)n1 0.75

----------
# Assay text: in vivo
# Condition context: Balb/c, mouse, po, 7.5 mg/kg
Readout: AUC(0-inf) (ng·h/mL)
Numeric only. Scale: ng·h/mL

Find the recorded AUC(0-inf) belonging to C[C@@H]1COCCN1c1cc(C2([S@](C)(=N)=O)CC2)nc(-c2cc[nH]c3nccc2-3)n1 and report it. 2400

----------
# Assay text: Extensive tissue distribution study in CT26 tumor-bearing mice
# Format: in vivo, Balb/c mice
# Condition context: Balb/c, mouse; 75 mg/kg PO; Esophagus; read-out: Cmax
Readout: Cmax (µg/mL)
Just the number please, in µg/mL, no unit attached.

Which measured Cmax value corresponds to C[C@@H]1COCCN1c1cc(C2([S@](C)(=N)=O)CC2)nc(-c2cc[nH]c3nccc2-3)n1 [AZD6738] ? 115
